biological target: FRMPD2_2, Q68DX3; assay: holdup assay; parameters: key: below the threshold = too weak to quantify, mostly under pKd 3.1 to 4; details: plain residues with an end cap or a label only (N-terminal biotin on a linker: ado-ado)
Sequence (Q68DX3 944-1038): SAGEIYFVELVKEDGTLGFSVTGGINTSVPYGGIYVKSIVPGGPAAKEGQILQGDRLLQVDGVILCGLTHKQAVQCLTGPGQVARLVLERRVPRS
property: pKd

Worked examples, 5 binders total:
[[record]]
binder = "NKSEPFLTWL [WWTR1, Q9GZV5]"
property = "pKd"
recorded_result = 4.29

[[record]]
binder = "SRPHTNETSL [MCC, P23508]"
property = "pKd"
recorded_result = "below the threshold"

[[record]]
binder = "KLQNPNQSVV [TYRP1, P17643]"
property = "pKd"
recorded_result = "below the threshold"

[[record]]
binder = "VISSDDLTEL [CAPN6, Q9Y6Q1]"
property = "pKd"
recorded_result = "below the threshold"

[[record]]
binder = "TNSKQGETTV [FZD1, Q9UP38]"
property = "pKd"
recorded_result = "below the threshold"


Q) Item SAGADSETHC [SLCO1B1, Q9Y6L6] has what recorded pKd?
A) below the threshold

Q) Now the binder AKADAQESRL [PLCB2, Q00722]
A) below the threshold

Q) Now the binder FVFESRKEIL [TBPL1, P62380]
A) below the threshold

Q) Now the binder DSEEELPTRL [GRK6, P43250]
A) below the threshold

Q) Now the binder QQGLLPHSSC [TYRO3, Q06418]
A) below the threshold

Q) Now the binder PGKKPEDSRV [SLCO2B1, O94956]
A) below the threshold

Q) Now the binder DAAHHDESNC [FMNL3, Q8IVF7]
A) below the threshold

Q) Now the binder FLVTEFNVML [DFNB31, Q9P202]
A) below the threshold

Q) Now the binder NISARRFTLC [FAM167B, Q9BTA0]
A) 3.67
